target: FGF-2 (Homo sapiens, UniProt P09038); assay: FGF-2 induced sprouting of HUVEC, spheroid-based cellular angiogenesis assay; conditions: FGF-2 25 ng/mL preincubated with compound, 24 h
Sequence (P09038 134-288): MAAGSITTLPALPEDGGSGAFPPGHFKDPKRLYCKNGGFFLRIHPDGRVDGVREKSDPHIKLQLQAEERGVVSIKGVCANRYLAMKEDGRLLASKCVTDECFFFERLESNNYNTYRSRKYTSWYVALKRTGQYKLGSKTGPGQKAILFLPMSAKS
pIC50: −log10 of the molar value.
READOUT_KIND: pIC50

O=C(O)Cc1cccc(NC(=O)c2cc(O)c(C(=O)O)cc2O)c1 [Ia-033a] ... 3.78
O=C(O)c1ccccc1CNC(=O)c1cc(O)cc(C(=O)O)c1O [IIa-053a] ... 4.74
O=C(O)c1cc(NC(=O)c2cc(O)cc(C(=O)O)c2O)ccc1O [IIa-004a] ... 4.48
CCOC(=O)c1cc(O)c(C(=O)Nc2cnccc2C(=O)OCC)cc1O [Ia-023a-E2] ... 4.12
O=C(O)Cc1cc(O)c(C(=O)Nc2cc(C(=O)O)cc(C(=O)O)c2)cc1O [IIIa-015a] ... 3.94

a: O=C(O)c1cc(O)c(C(=O)Nc2ccc(C(=O)O)c(C(=O)O)c2)cc1O [Ia-014a]
b: O=C(O)Cc1cccc(NC(=O)c2cc(O)cc(C(=O)O)c2O)c1 [IIa-033a]
c: O=C(O)c1cc(O)c(C(=O)Nc2cccc(C(=O)O)c2C(=O)O)cc1O [Ia-011a]
d: O=C(O)c1ccccc1NC(=O)c1cc(O)cc(C(=O)O)c1O [IIa-001a]
e: O=C(O)c1cc(O)c(COCc2cc(O)c(C(=O)O)cc2O)cc1O [IIIc-060a]
Query: Descending sort on pIC50 required. Thanks in advance for listing the labels in the requested order.
Response: d, a, b, e, c
(d: 4.96, a: 4.70, b: 4.49, e: 4.29, c: 3.96)

P: O=C(O)c1cc(O)c(C(=O)Nc2ccc(-c3nnn[nH]3)cc2)cc1O [Ia-003a-Tz]
Q: O=C(O)c1cc(O)cc(CSCc2cc(O)cc(C(=O)O)c2O)c1O [IVc-058a]
R: O=C(O)Cc1ccccc1NC(=O)c1cc(O)c(C(=O)O)cc1O [Ia-034a]
Query: Descending sort on pIC50 required. Thanks in advance for listing the labels in the requested order.
Response: Q, R, P
(Q: 5.31, R: 4.85, P: 4.35)

1: O=C(O)c1cc(NC(=O)c2cc(O)cc(C(=O)O)c2O)cc(NC(=O)c2cc(O)cc(C(=O)O)c2O)c1 [IIb-010a]
2: O=C(O)c1cc(NC(=O)c2cc(O)c(C(=O)O)cc2O)ccc1O [Ia-004a]
Query: When the recorded pIC50 values are compared, which is smaller: that of 1 or that of 2 ? Refer to your chosen item by its label in the answer.
Response: 1

====

target: UniProtKB P15692; experiment: VEGF-A induced sprouting of HUVEC, spheroid-based cellular angiogenesis assay; conditions: VEGF-A 25 ng/mL preincubated with compound, 24 h, read-out: VEGF-A1 IC50
Sequence (P15692 27-191 isoform P15692-4): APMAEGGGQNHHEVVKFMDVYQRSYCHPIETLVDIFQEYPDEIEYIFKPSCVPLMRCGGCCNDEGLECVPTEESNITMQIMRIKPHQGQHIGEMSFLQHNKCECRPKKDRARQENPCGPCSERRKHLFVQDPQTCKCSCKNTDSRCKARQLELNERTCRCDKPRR
pIC50: −log10 of the molar value.
READOUT_KIND: pIC50

I: O=C(O)c1cc(O)ccc1NC(=O)c1cc(O)cc(C(=O)Nc2ccc(O)cc2C(=O)O)c1O [IIc-009a]
II: O=C(O)c1cc(O)c(C(=O)Nc2c(C(=O)O)cccc2C(=O)O)cc1O [Ia-013a]
Query: Between I and II , whose measured pIC50 reads higher? Refer to your chosen item by its label in the answer.
Response: II
